Origin of measurements: PubChem BioAssay (NCI)

# System: LOX IMVI melanoma
# protocol_summary: NCI-60 one-dose screen, 48 h
# run_parameters: 10 µM unless noted
Compounds without any hit were thinned out: in the full panel of roughly 83,000, 20% have a hit. Calls of active or inactive are those of the source. The calls were made as follows: active = growth percent below 10; inactive = the rest.
Classes used: active, inactive

>>> class_name("COc1ccc(C(=O)COc2cccc(/C=C3\\Oc4ccc5ccccc5c4C3=O)c2)cc1")
"active"
>>> class_name("COc1ccc(-c2csc(NC(=O)c3cc(O)c(O)c(O)c3)n2)cc1")
"inactive"
>>> class_name("CCOC(=O)c1ccccc1OC(=O)NNc1ccccc1")
"inactive"
>>> class_name("CCC(=O)Nc1ccccc1C#C/C=C\\C#Cc1ccccc1C(F)(F)F")
"inactive"
>>> class_name("O=[P@@]1(c2ccccc2)O[C@H](COCc2ccccc2)[C@@H](OCc2ccccc2)[C@H](OCc2ccccc2)[C@H]1NCc1ccccc1")
"active"
>>> class_name("O=C(/C=C/c1cc2ccccc2[nH]c1=O)c1ccc(Cl)cc1")
"active"
>>> class_name("O[C@@H]1Cc2ccc3ccccc3c2N[C@H](c2ccoc2)C1")
"inactive"
>>> class_name("OCc1nnn(-c2ccccc2)c1CO")
"inactive"
>>> class_name("COc1ccc2c(c1)C(=O)/C(=C/c1ccc([N+](=O)[O-])s1)O2")
"active"
>>> class_name("O=C(Nc1ccc(Nc2ccncc2)cc1)c1ccc(Nc2ccnc3ccc([N+](=O)[O-])cc23)cc1[N+](=O)[O-]")
"inactive"
>>> class_name("O=C(Nc1nc(-c2ccccc2)cs1)c1cc(O)c(O)c(O)c1")
"inactive"
>>> class_name("CCCCC1Nc2nc(SC)n(C)c(=O)c2CN(Cc2ccccc2)C1=O (configuration not stated)")
"inactive"
>>> class_name("O=C1Cc2cc(CCn3cncn3)c(Cl)cc2N1")
"inactive"
>>> class_name("c1ccc2c(c1)[nH]c1c2cc[n+]2cc3c(cc12)CCCC3")
"inactive"
>>> class_name("O=C(Nc1ccc(Cl)cc1Cl)Nc1ccc(-c2cccnc2)cc1N1CCC(CO)CC1")
"inactive"
>>> class_name("Cn1cc(-c2csc(-c3cn(C)c4ncccc34)n2)c2cccnc21")
"inactive"
>>> class_name("CC1=C(C(=O)Nc2ccccc2)C(c2ccc3c(c2)OCCO3)NC(=O)N1 (configuration not stated)")
"inactive"
>>> class_name("CO[C@H]1CC(O[C@@H]2/C(C)=C/C[C@@H]3C[C@@H](C[C@]4(CC[C@H](C)[C@@H](C5CCCCC5)O4)O3)OC(=O)[C@@H]3C=C(C)/C(=N/O)[C@H]4OC/C(=C\\C=C\\[C@@H]2C)[C@]43O)O[C@@H](C)C1O (some centres not stated)")
"active"
>>> class_name("C/C(=N\\N1CC(=O)NC1=O)c1ccc([N+](=O)[O-])o1")
"inactive"
>>> class_name("COc1cc(C2=NN(C(C)=O)C(c3ccc(OC(C)=O)cc3OC(C)=O)O2)c(OC(C)=O)c2ccccc12 (configuration not stated)")
"active"
>>> class_name("c1csc([C@@H]2C[C@@H]3Cc4ccc5ccccc5c4N2O3)c1")
"inactive"
>>> class_name("O=C1/C(=C/c2ccc([N+](=O)[O-])o2)Oc2ccc(Cl)cc21")
"active"

###

# System: CAKI-1 renal
# protocol_summary: NCI-60 one-dose screen, 48 h
# run_parameters: 10 µM unless noted
The panel holds about 83,000 compounds, 20% with a hit somewhere; the sample as a whole holds those more often. Activity calls are given as the source filed them. Rule for the calls: active = growth percent below 10; inactive = the rest.
Classes used: yes for active, no for inactive

>>> class_name("CC(C)C/C(=N\\NC(=O)c1ccncc1)c1cc(Cl)ccc1O")
"yes"
>>> class_name("Cc1ccc(C(C)C)cc1NC(=O)Nc1ccc([N+](=O)[O-])cc1")
"no"
>>> class_name("NC(N)=NC(N)=NCCCc1ccccc1")
"no"
>>> class_name("NC(=O)SCC(=O)Nc1ccccc1-c1ccccc1")
"no"
>>> class_name("CCC1=C(c2ccc(OC)cc2)C(C)Oc2cc(OC(C)=O)ccc21 (stereo unspecified)")
"no"
>>> class_name("O=C1CC(=O)N(c2ccccc2)O1")
"no"

###

# Test system: NCI-H522 lung
# protocol_summary: NCI-60 one-dose screen, 48 h (100 = growth as untreated, 0 = no growth, -100 = all killed)
# run_parameters: 10 µM unless noted
Compounds without any hit were thinned out: in the full panel of roughly 83,000, 20% have a hit.
recorded_endpoint: growth (%)

>>> result_value("NNC(=O)NO")
86
>>> result_value("COc1cc2c(c(OC)c1OC)CCc1cnoc1-2")
102
>>> result_value("C[C@]12CC[C@@H]3c4ccc(O)c([N+](=O)[O-])c4CC[C@H]3[C@@H]1CC[C@@H]2NS(=O)(=O)c1cccc(Br)c1")
-50.4
>>> result_value("COc1cc2cn3c4ccc(O)cc4nc(N)c3c2cc1OC")
-39.4
>>> result_value("C=C(C[C@@](O)(C(=O)Oc1ccccc1)C(=O)C1CCCCC1)c1ccccc1")
91.8
>>> result_value("CSc1nc2c(c(=O)[nH]1)C(c1ccc(Cl)cc1)C1=C(N2)/C(=C/c2ccc(Cl)cc2)CNC1 (centres undefined)")
79.3
>>> result_value("O=C(/C=C/c1cc2ccccc2[nH]c1=O)c1ccc(O)cc1")
-44.1
>>> result_value("COc1ccc2c(c1)C(=O)c1c-2c(=O)n(CCCCCCC(=O)NO)c2ccccc12")
4.79
>>> result_value("Cn1cc(-c2nc(-c3c[nH]c4ncc(F)cc34)cs2)c2cccnc21")
140
>>> result_value("COc1ccc2c(c1)C(=O)c1c-2c(OCCN(C)C)nc2cc(OC)ccc12")
-22.1
>>> result_value("COc1ccc(Cn2cc3c(c2-c2ccccc2)CCc2cncnc2-3)cc1")
26.1
>>> result_value("O=C(OCCBr)c1ccc(Cl)c([N+](=O)[O-])c1")
8.61
>>> result_value("CC[C@@H]1OC(=O)[C@H](C)[C@@H](O[C@H]2C[C@@](C)(OC)[C@@H](O)[C@H](C)O2)[C@H](C)[C@@H](O[C@@H]2O[C@H](C)C[C@H](N(C)C)[C@H]2O)[C@](C)(O)C[C@@H](C)[C@@H]2N[C@@H](COCCOC)O[C@H]([C@H]2C)[C@]1(C)O")
98.6
>>> result_value("C/C(=N/N=C(N)N)c1ccc(Cl)cc1")
89
>>> result_value("Cc1ccc(C(O)C2=CC(=O)c3ccccc3C2=O)cc1 (centres undefined)")
95.7
>>> result_value("COc1ccc(-c2nnc(COc3ccc(NC(=O)Nc4cc(C(F)(F)F)cc(C(F)(F)F)c4)cc3F)o2)cc1")
-17.8
>>> result_value("COc1cc(/C=C/C(=O)c2c(-c3ccc(F)cc3)nc3sc(C)nn23)cc(OC)c1OC")
-27
>>> result_value("Cc1scc2c1N(C(=O)CN1CCN(C)CC1)c1ccccc1NC2=O")
104
>>> result_value("CC[N+](C)(CC)CCCC(C)Nc1ccnc2cc(Cl)ccc12 (centres undefined)")
108

###

# System: SK-OV-3 ovarian
# protocol_summary: NCI-60 one-dose screen, 48 h (100 = growth as untreated, 0 = no growth, -100 = all killed)
# run_parameters: 10 µM unless noted
# Experimental: Growth inhibition of the SK-OV-3 human tumor cell line is measured as a screen for anti-cancer activity. Cells are grown in 96 well plates and exposed to the test compound for 48 hours. Compounds are tested at a single concentration, which is 10^-5 M for most compounds. The reported endpoint is percent growth (GI% or GIPRCNT), where numbers from 0 - 100% represent growth inhibition, and numbers from -100% - 0 represent cell death. For example, a value of 40 represents 60% growth inhibition. […]
The panel holds about 83,000 compounds, 20% with a hit somewhere; the sample as a whole holds those more often.
recorded_endpoint: growth (%)

>>> result_value("O=C1NCN(c2ccccc2)C12CCN(CCCC(c1ccc(F)cc1)c1ccc(F)cc1)CC2")
73.4
>>> result_value("O=[N+]([O-])c1cnc(Sc2ccncn2)c([N+](=O)[O-])c1")
97.2
>>> result_value("O=C1C[C@@H]2/C(=C(O)\\C=C\\c3ccccc3)C(=O)C=C[C@@H]2O1")
86.1
>>> result_value("CC(=O)NCCSC(=O)C(=O)SCCNC(C)=O")
114
>>> result_value("Cn1cnc([N+](=O)[O-])c1S(=O)(=O)Oc1ccc(Cl)cc1")
104
>>> result_value("C[n+]1ccc(C#N)c2ccccc21")
98.2
>>> result_value("Cc1nn(-c2ccccc2)c2c1oc(=O)c1cc(Cl)ccc12")
106
>>> result_value("C[N+]1(CCC[N+]2(C)C[C@@H]3[C@H](C2)[C@@H]2C=C[C@H]3C2)CCOCC1 (stereo partly drawn)")
99.3
>>> result_value("Nc1nc2ncc(CCNc3ccc(C(=O)NC(CCC(=O)O)C(=O)O)cc3)nc2c(=O)[nH]1 (stereo not drawn)")
110
>>> result_value("COc1ncc(-c2ccc3nccc(C#CCN4CCN(S(C)(=O)=O)CC4)c3c2)cc1NS(=O)(=O)c1ccc(F)cc1F")
-11.1
>>> result_value("O=C(Cn1ccnc1)NC(c1ccccc1)c1ccccc1")
114
>>> result_value("CSc1ccc2c(c1)N(CCC1CCCCN1C)c1ccccc1S2 (stereo not drawn)")
81
>>> result_value("CC(C)[O-].CC(C)[O-].CN(CCN(C)Cc1cc(F)cc(F)c1[O-])Cc1cc(F)cc(F)c1[O-].[Ti+4]")
16.4
